Parameter: log10 of CC50. Scope: all listed entries.
protocolSummary: Cytotoxicity against MDCK cells by MTS assay
Format: cell-based, Canis lupus familiaris
conditionLabel: dog
The common logarithm of CC50 in µM is what is listed.

These recorded examples may help you get a feel for the data.
Cc1cc(C)cc(S(=O)(=O)c2c(C(=O)NCCS(N)(=O)=O)[nH]c3ccc(Cl)cc23)c1    0.90
Cc1cc(C)cc(S(=O)(=O)c2c(C(=O)NCCS(N)(=O)=O)[nH]c3ccc([N+](=O)[O-])cc23)c1    1.51
Cc1cc(C)cc(S(=O)(=O)c2c(C(N)=O)[nH]c3ccc(Cl)c(F)c23)c1    1.61
Cc1cc(C)cc(S(=O)(=O)c2c(C(=O)NCCC(N)=O)[nH]c3ccc(Cl)cc23)c1    0.99
Cc1cc(C)cc(S(=O)(=O)c2c(C(=O)NCC(N)=O)[nH]c3ccc(Cl)c(F)c23)c1    0.88
Cc1cc(C)cc(S(=O)(=O)c2c(C(=O)NCCC(N)=O)[nH]c3ccc(Br)cc23)c1    0.93
Cc1cc(C)cc(S(=O)(=O)c2c(C(=O)NCCC(N)=O)[nH]c3ccc(Cl)c(F)c23)c1    1.39
Cc1cc(C)cc(S(=O)(=O)c2c(C(=O)NCC(N)=O)[nH]c3ccc(Br)cc23)c1    0.99

Qu. Look at this compound and give its reported log10 of CC50. Cc1cc(C)cc(S(=O)(=O)c2c(C(=O)NCCS(N)(=O)=O)[nH]c3ccc(Br)cc23)c1
Ans. 0.28

Qu. Another compound: Cc1cc(C)cc(S(=O)(=O)c2c(C(=O)NC(C)CC(N)=O)[nH]c3ccc(Br)cc23)c1 (stereo not drawn)
Ans. 1.90

---

targetDesc: Human immunodeficiency virus type 1 reverse transcriptase (Human immunodeficiency virus 1, UniProt Q72547, K103N)
protocolSummary: Inhibition of HIV1 reverse transcriptase p66/p51 K103N mutant
conditionLabel: read-out: IC50
experimentalEndpoint: IC50 (nM)
Only the number, expressed in nM, is required.

These recorded examples may help you get a feel for the data.
Cc1cc(C)cc(S(=O)(=O)c2c(C(=O)NCC(N)=O)[nH]c3ccc(Cl)c(F)c23)c1    1040
Cc1cc(C)cc(S(=O)(=O)c2c(C(=O)N[C@@H](C)C(N)=O)[nH]c3ccc(Br)cc23)c1    1500
Cc1cc(C)cc(S(=O)(=O)c2c(C(=O)NCC(N)=O)[nH]c3ccc([N+](=O)[O-])cc23)c1    417

Below: the item to evaluate.
Qu. Look at this compound and give its reported IC50. Cc1cc(C)cc(S(=O)(=O)c2c(C(=O)NCCS(N)(=O)=O)[nH]c3ccc(Cl)cc23)c1
Ans. 584

---

Parameter: MCC at 72 h. Scope: all listed entries.
protocolSummary: Cytotoxicity against african green monkey Vero cells assessed as drug level causing microscopically detectable alteration of normal cell morphology after 3 days
Type: cell-based
conditionLabel: chlorocebus sabaeus
Only the number, expressed in µM, is required.

Cc1cc(C)cc(S(=O)(=O)c2c(C(=O)NCCC(N)=O)[nH]c3ccc(Cl)c(F)c23)c1    100

Below: the item to evaluate.
Qu. Look at this compound and give its reported MCC at 72 h. Cc1cc(C)cc(S(=O)(=O)c2c(C(=O)NC(C)CC(N)=O)[nH]c3ccc(Cl)cc23)c1 (centres undefined)
Ans. 100

---

protocolSummary: Cytotoxicity against MDCK cells assessed as drug level causing microscopically detectable alteration of normal cell morphology
Assay type: cell-based, Canis lupus familiaris
conditionLabel: dog
experimentalEndpoint: MCC (µM)
Only the number, expressed in µM, is required.

These recorded examples may help you get a feel for the data.
Cc1cc(C)cc(S(=O)(=O)c2c(C(=O)NC(C)C(N)=O)[nH]c3ccc([N+](=O)[O-])cc23)c1 (stereo not given)    100
Cc1cc(C)cc(S(=O)(=O)c2c(C(=O)NCCS(N)(=O)=O)[nH]c3ccc(Cl)c(F)c23)c1    20

Qu. Look at this molecule and give its reported MCC. Cc1cc(C)cc(S(=O)(=O)c2c(C(=O)NC(C)CS(N)(=O)=O)[nH]c3ccc(Cl)cc23)c1 (stereo not given)
Ans. 20

Qu. Another molecule: Cc1cc(C)cc(S(=O)(=O)c2c(C(=O)NCCC(N)=O)[nH]c3ccc(Cl)c(F)c23)c1
Ans. 100

Qu. Another molecule: Cc1cc(C)cc(S(=O)(=O)c2c(C(=O)NCCS(N)(=O)=O)[nH]c3ccc(Br)cc23)c1
Ans. 4

Qu. Another molecule: Cc1cc(C)cc(S(=O)(=O)c2c(C(=O)NC(C)C(N)=O)[nH]c3ccc(Cl)c(F)c23)c1 (stereo not given)
Ans. 20

Qu. Another molecule: Cc1cc(C)cc(S(=O)(=O)c2c(C(=O)NNC(C)C)[nH]c3ccc(Cl)cc23)c1
Ans. 100

---

targetDesc: Human immunodeficiency virus type 1 reverse transcriptase (Human immunodeficiency virus 1, UniProt Q72547, K103N)
protocolSummary: Inhibition of HIV1 reverse transcriptase p66/p51 K103N mutant
conditionLabel: read-out: IC50
pIC50: −log10 of the molar value.
Label no if pIC50 falls below 6; label yes in every other case.

Here are 3 compounds together with their reported answers.
Cc1cc(C)cc(S(=O)(=O)c2c(C(=O)N[C@H](C)C(N)=O)[nH]c3ccc(Br)cc23)c1    yes
Cc1cc(C)cc(S(=O)(=O)c2c(C(=O)NC(C)C(N)=O)[nH]c3ccc(Cl)cc23)c1 (configuration not stated)    yes
Cc1cc(C)cc(S(=O)(=O)c2c(C(N)=O)[nH]c3ccc(Cl)cc23)c1    yes

Qu. Record Cc1cc(C)cc(S(=O)(=O)c2c(C(=O)NC(C)CS(N)(=O)=O)[nH]c3ccc([N+](=O)[O-])cc23)c1 (configuration not stated) ; criterion: pIC50 no lower than 6. Met?
Ans. no

Qu. Another compound: Cc1cc(C)cc(S(=O)(=O)c2c(C(=O)NCCC(N)=O)[nH]c3ccc([N+](=O)[O-])cc23)c1
Ans. yes

Qu. Another compound: Cc1cc(C)cc(S(=O)(=O)c2c(C(=O)NC(C)CC(N)=O)[nH]c3ccc(Br)cc23)c1 (configuration not stated)
Ans. yes

Qu. Another compound: Cc1cc(C)cc(S(=O)(=O)c2c(C(=O)NCCS(N)(=O)=O)[nH]c3ccc(Br)cc23)c1
Ans. yes

Qu. Another compound: Cc1cc(C)cc(S(=O)(=O)c2c(C(=O)NCCC(N)=O)[nH]c3ccc(Cl)cc23)c1
Ans. yes

---

System: Sindbis virus
protocolSummary: Antiviral activity against Sindbis virus in african green monkey Vero cells assessed as protection against virus-induced cytopathicity
Assay type: functional, organism-based
Parameter: EC50. Scope: all listed entries.

NC(=O)c1ncn([C@@H]2O[C@H](CO)[C@@H](O)[C@H]2O)n1 [RIBAVIRIN]    250 µM
Cc1cc(C)cc(S(=O)(=O)c2c(C(=O)NC(C)C(N)=O)[nH]c3ccc([N+](=O)[O-])cc23)c1 (centres undefined)    > 100 µM
Cc1cc(C)cc(S(=O)(=O)c2c(C(=O)NC(C)CS(N)(=O)=O)[nH]c3ccc([N+](=O)[O-])cc23)c1 (centres undefined)    > 20 µM

Below: the item to evaluate.
Qu. Look at this molecule and give its reported EC50. Cc1cc(C)cc(S(=O)(=O)c2c(C(=O)NC(C)C(N)=O)[nH]c3ccc(Cl)c(F)c23)c1 (centres undefined)
Ans. > 20 µM

---

Tested on: Influenza A virus
protocolSummary: Antiviral activity against influenza H1N1 virus in MDCK cells assessed as reduction of virus-induced cytopathicity by visual cytopathic effect scoring method
Type: functional, organism-based
Parameter: EC50. Scope: all listed entries.

Cc1cc(C)cc(S(=O)(=O)c2c(C(=O)NCC(N)=O)[nH]c3ccc(Cl)c(F)c23)c1    > 4 µM
Cc1cc(C)cc(S(=O)(=O)c2c(C(N)=O)[nH]c3ccc(Cl)c(F)c23)c1    > 4 µM
Cc1cc(C)cc(S(=O)(=O)c2c(C(=O)NC(C)CC(N)=O)[nH]c3ccc([N+](=O)[O-])cc23)c1 (configuration not stated)    > 4 µM
Cc1cc(C)cc(S(=O)(=O)c2c(C(=O)NC(C)CC(N)=O)[nH]c3ccc(Br)cc23)c1 (configuration not stated)    > 4 µM
Cc1cc(C)cc(S(=O)(=O)c2c(C(=O)NC(C)CS(N)(=O)=O)[nH]c3ccc(Cl)cc23)c1 (configuration not stated)    > 4 µM

Qu. Look at this compound and give its reported EC50. Cc1cc(C)cc(S(=O)(=O)c2c(C(=O)NCCS(N)(=O)=O)[nH]c3ccc(Cl)cc23)c1
Ans. > 4 µM

Qu. Another compound: Cc1cc(C)cc(S(=O)(=O)c2c(C(=O)NCC(N)=O)[nH]c3ccc(Br)cc23)c1
Ans. > 4 µM
